Test system: Pre-adipocyte stem cells, bone marrow mesenchymal stem cells and fibroblasts
Assay: Assay 2 to measure adipogenesis (dexamethasone/insulin/indomethacin induction, Oil Red O or BODIPY staining)
Format: cell-based
Details: Assay 2
readout.label: Fold adipogenic induction vs. negative control
Answer using only a numeral; do not append any unit.

Look over these answered cases.
LKSEVSK [7mer]; 3.0
SQLKSEVSK [9mer]; 3.0
KSEVSK [6mer]; 4.2

Then there is this substance:
Task item: Fill in the blank: the reported Fold adipogenic induction vs. negative control of KLKDENSQLKSEVSK [peptide B] is ____.
Reply: 3.1
